Tested on: giant foxtail (Setaria faberi, SETFA)
assay_notes: Test A post-emergence, giant foxtail
Format: in vivo
reported_conditions: Post-Emergence at 62.5 g/ha; after 13 d
test_readout: damage to plant (100=total damage; 0=no damage) SETFA

Examples with answers:
1. CCn1nc([C@H]2CN(C)C(=O)[C@@H]2C(=O)Nc2cccc(F)c2F)c2c(F)cccc21
70
2. CCn1nc([C@H]2CN(C)C(=O)[C@@H]2C(=O)Nc2cccc(F)c2F)c2ccc(F)cc21
90
3. CN1CC(c2cc(C(F)(F)F)n(C)n2)C(C(=O)Nc2cccc(F)c2OC(F)(F)F)C1=O (racemic)
60

Value wanted: damage to plant (100=total damage; 0=no damage) SETFA (giant foxtail (Setaria faberi, SETFA)) of entry CN1CC(c2cc(Cl)n(C)n2)C(C(=O)Nc2cccc(F)c2F)C1=O (racemic) 50

Value wanted: damage to plant (100=total damage; 0=no damage) SETFA (giant foxtail (Setaria faberi, SETFA)) of entry CCn1nc(C2CN(C)C(=O)C2C(=O)Nc2cccc(F)c2F)c2cccc(F)c21 (stereo not shown) 0

Value wanted: damage to plant (100=total damage; 0=no damage) SETFA (giant foxtail (Setaria faberi, SETFA)) of entry CN1CC(c2cc(C(F)(F)F)n(C)n2)C(C(=O)Nc2cccc(F)c2F)C1=O (racemic) 90

Value wanted: damage to plant (100=total damage; 0=no damage) SETFA (giant foxtail (Setaria faberi, SETFA)) of entry `CN1C[C@H](c2nn(C)c3c(Cl)cccc23)[C@@H](C(=O)Nc2cccc(F)c2F)C1=O` 50

All figures here come from patent US20220281848A1.
